Molecular target: Ba/F3 stable cells (Homo sapiens, UniProt P04626, DUP772-775, cells depend on it)
Construct: EC50 Ba/F3-HER2 A775-G776insYVMA; other: Ba/F3-HER2 A775-G776insYVMA cells, 72 h, CCK-8
Sequence (P04626 with tags, fused parts or gaps DUP772-775): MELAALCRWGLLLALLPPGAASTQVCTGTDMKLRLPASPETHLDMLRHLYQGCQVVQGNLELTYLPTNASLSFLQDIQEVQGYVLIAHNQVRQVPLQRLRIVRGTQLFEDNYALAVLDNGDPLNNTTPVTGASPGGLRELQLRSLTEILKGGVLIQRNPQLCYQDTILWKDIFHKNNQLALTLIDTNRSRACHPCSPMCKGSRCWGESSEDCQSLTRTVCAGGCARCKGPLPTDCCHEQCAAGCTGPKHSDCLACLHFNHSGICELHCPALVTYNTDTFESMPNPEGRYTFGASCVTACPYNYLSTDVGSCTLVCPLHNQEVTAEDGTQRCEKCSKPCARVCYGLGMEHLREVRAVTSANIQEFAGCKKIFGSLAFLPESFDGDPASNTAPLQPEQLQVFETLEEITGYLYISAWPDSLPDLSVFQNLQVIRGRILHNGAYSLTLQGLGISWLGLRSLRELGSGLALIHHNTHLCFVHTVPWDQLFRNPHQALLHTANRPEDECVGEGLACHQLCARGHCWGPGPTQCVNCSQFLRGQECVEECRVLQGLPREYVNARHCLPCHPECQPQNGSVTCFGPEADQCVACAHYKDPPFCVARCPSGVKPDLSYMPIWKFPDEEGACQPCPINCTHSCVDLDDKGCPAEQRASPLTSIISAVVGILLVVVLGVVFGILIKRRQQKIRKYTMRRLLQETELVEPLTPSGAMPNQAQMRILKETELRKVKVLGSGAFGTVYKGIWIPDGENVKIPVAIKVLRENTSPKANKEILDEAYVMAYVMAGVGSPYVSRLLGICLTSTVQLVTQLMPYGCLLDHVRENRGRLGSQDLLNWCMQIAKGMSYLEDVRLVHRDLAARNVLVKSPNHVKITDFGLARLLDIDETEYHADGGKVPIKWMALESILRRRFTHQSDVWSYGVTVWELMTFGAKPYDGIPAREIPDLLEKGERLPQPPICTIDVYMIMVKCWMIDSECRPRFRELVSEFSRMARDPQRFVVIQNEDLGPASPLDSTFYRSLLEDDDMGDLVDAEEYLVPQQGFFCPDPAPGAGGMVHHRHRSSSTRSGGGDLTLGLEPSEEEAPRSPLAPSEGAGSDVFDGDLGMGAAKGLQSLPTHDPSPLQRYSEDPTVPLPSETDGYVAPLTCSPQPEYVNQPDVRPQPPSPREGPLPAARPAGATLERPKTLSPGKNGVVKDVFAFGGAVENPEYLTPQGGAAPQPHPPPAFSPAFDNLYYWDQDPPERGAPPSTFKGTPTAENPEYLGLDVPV
Experiment: EC50 assay: Ba/F3 stable cell proliferation (CCK-8, 72 h)
Type: cell-based
Details: Ba/F3-HER2 A775-G776insYVMA cells
measured quantity: EC50

INPUT: Given the entry `C=CC(=O)N1CC(c2cc3c(Nc4ccc(Cl)c(Cl)c4F)ncnc3cc2O[C@H]2CCOC2)C1` , what EC50 was observed with Ba/F3 stable cells (Homo sapiens, UniProt P04626, DUP772-775, cells depend on it)?
OUTPUT: > 1000 nM

INPUT: Given the entry `COc1cc2ncnc(Nc3ccc(Cl)c(Cl)c3F)c2cc1OC1CCN(C#N)CC1` , what EC50 was observed with Ba/F3 stable cells (Homo sapiens, UniProt P04626, DUP772-775, cells depend on it)?
OUTPUT: > 1000 nM

INPUT: Given the entry `C=CC(=O)N[C@H]1C[C@@H](Oc2cc3c(Nc4ccc(Cl)c(Cl)c4F)ncnc3cc2OCC)C1` , what EC50 was observed with Ba/F3 stable cells (Homo sapiens, UniProt P04626, DUP772-775, cells depend on it)?
OUTPUT: ≤ 200 nM

INPUT: Given the entry C=CC(=O)NC1CC(Oc2cc3c(Nc4cccc5c4CCCC5)ncnc3cc2OC)C1 (stereo not drawn) , what EC50 was observed with Ba/F3 stable cells (Homo sapiens, UniProt P04626, DUP772-775, cells depend on it)?
OUTPUT: > 1000 nM

INPUT: Given the entry `C=CC(=O)N1CCC(Oc2cc3c(C(=O)c4ccc(Cl)c(Cl)c4F)ncnc3cc2OC)CC1` , what EC50 was observed with Ba/F3 stable cells (Homo sapiens, UniProt P04626, DUP772-775, cells depend on it)?
OUTPUT: 200 to 1000 nM

INPUT: Given the entry `C=CC(=O)N1CCC(Oc2cc3c(NCc4ccc(Cl)cc4)ncnc3cc2OC)CC1` , what EC50 was observed with Ba/F3 stable cells (Homo sapiens, UniProt P04626, DUP772-775, cells depend on it)?
OUTPUT: > 1000 nM
